- Tested on: Jurkat
- measurementDescription: Antiproliferative activity against human Jurkat cells assessed as inhibition of cell viability after 72 hrs by CCK-8 assay
- Type: functional, cell-based
endpointLabel: IC50

Solved entries:
- molecule: "C[S+]([O-])CCCCN=C=S (stereo not drawn) [SULFORAPHANE]"
  dataValue: "> 10 µM"
- molecule: "CN(C)C(=O)c1cc2cnc(Nc3ccc(N4CCNCC4)cn3)nc2n1C1CCCC1 [RIBOCICLIB]"
  dataValue: "> 10 µM"

Then there is this molecule:
Input: May I ask what IC50 has been recorded for "CN(C)C(=O)c1cc2cnc(Nc3ccc(NC(=O)CCCCCCCN=C=S)cc3)nc2n1C1CCCC1" ?
Output: 3.43 µM

* * *

In this section, each of the molecules is paired with its reported inhibition.
- studySystem: CDK4/Cyclin D3 (Homo sapiens) (UniProt P11802+P30281)
- measurementDescription: Inhibition of recombinant full-length human CDK4/cyclinD3 at 1 uM using Rb fragment as substrate measured after 40 mins in presence of [gamma33P]ATP by scintillation counting method relative to control
- Type: protein-complex assay
Answer format: numeric, % implied, no suffix.

- itemSmiles: "CN(C)C(=O)c1cc2cnc(Nc3ccc(C(=O)NCCCN=C=S)cc3F)nc2n1C1CCCC1"
  dataValue: 86
- itemSmiles: "CN(C)C(=O)c1cc2cnc(Nc3ccc(C(=O)NCCCN=C=S)cc3O)nc2n1C1CCCC1"
  dataValue: 46
- itemSmiles: "CN(C)C(=O)c1cc2cnc(Nc3ccc(N4CCN(C(=O)CCCCCCCN=C=S)CC4)cn3)nc2n1C1CCCC1"
  dataValue: 98
- itemSmiles: "CN(C)C(=O)c1cc2cnc(Nc3ccc(CNC(=O)CCCCCCCN=C=S)cc3)nc2n1C1CCCC1"
  dataValue: 93

Then there is this molecule:
Input: May I ask what inhibition has been recorded for "CN(C)C(=O)c1cc2cnc(Nc3ccccc3NC(=O)CCCCCCCN=C=S)nc2n1C1CCCC1" ?
Output: 14

* * *

In this section, each of the compounds is paired with its reported inhibition.
- studySystem: CDK6/cyclin D3 (Homo sapiens) (UniProt P30281+Q00534)
- measurementDescription: Inhibition of recombinant full-length human CDK6/cyclinD3 at 1 uM using histone H1 as substrate measured after 40 mins in presence of [gamma33P]ATP by scintillation counting method relative to control
- Assay type: protein-complex assay
Answer format: numeric, % implied, no suffix.

Solved entries:
- itemSmiles: "CN(C)C(=O)c1cc2cnc(Nc3ccc(NC(=O)CCCCCCCN=C=S)cc3C(F)(F)F)nc2n1C1CCCC1"
  studySystem: "CDK6/cyclin D3 (Homo sapiens) (UniProt P30281+Q00534)"
  endpointLabel: "inhibition"
  dataValue: 1
- itemSmiles: "CN(C)C(=O)c1cc2cnc(Nc3ccc(C(=O)NCCCCCCN=C=S)cn3)nc2n1C1CCCC1"
  studySystem: "CDK6/cyclin D3 (Homo sapiens) (UniProt P30281+Q00534)"
  endpointLabel: "inhibition"
  dataValue: 82

Input: May I ask what inhibition has been recorded for "CN(C)C(=O)c1cc2cnc(Nc3ccc(C(=O)NCCCCCCCN=C=S)cc3O)nc2n1C1CCCC1" ?
Output: 42

Input: May I ask what inhibition has been recorded for "CN(C)C(=O)c1cc2cnc(Nc3ccc(C(=O)NCCCCCCCN=C=S)cn3)nc2n1C1CCCC1" ?
Output: 64

Input: May I ask what inhibition has been recorded for "CN(C)C(=O)c1cc2cnc(Nc3ccc(NC(=O)CCCCN=C=S)cc3)nc2n1C1CCCC1" ?
Output: 93
